# Procedure text: Cytotoxicity in Huh-7 cells
# Type: cell-based
# Condition context: human
Observable: CC50

# CC50 (compound: CCCCOC(=O)[C@H](C)N[P@](=O)(OC[C@H]1O[C@@H](n2ccc(=O)[nH]c2=O)[C@@]2(CCO2)[C@@H]1O)Oc1ccccc1 [Compound P1] ) is > 98 µM
